- assay.system: KRAS G13C (Homo sapiens, UniProt P01116+P62937, G13C)
- Sequence (P01116 1-169 isoform P01116-2 G13C limits assumed): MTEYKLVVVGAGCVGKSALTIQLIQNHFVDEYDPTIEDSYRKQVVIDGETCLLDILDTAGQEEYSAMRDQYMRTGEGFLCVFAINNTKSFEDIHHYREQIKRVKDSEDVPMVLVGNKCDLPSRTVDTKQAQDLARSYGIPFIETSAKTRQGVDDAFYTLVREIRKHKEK
- Sequence (P62937 whole entry): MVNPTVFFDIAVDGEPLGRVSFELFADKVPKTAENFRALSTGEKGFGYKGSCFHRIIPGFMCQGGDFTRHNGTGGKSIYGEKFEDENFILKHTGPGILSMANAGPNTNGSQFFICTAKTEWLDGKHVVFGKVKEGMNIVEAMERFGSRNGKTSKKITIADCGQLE
- assay: Ras-Raf disruption/FRET/MOA assay, KRAS G13C
- Assay type: biochemical
- experimental.parameters: disruption of BRAF RBD binding, with Cyclophilin A; read-out: KRAS G13C FRET IC50

compound | IC50
CCn1c(-c2cccnc2[C@H](C)OC)c2c3cc(ccc31)-c1cc(O)cc(c1)C[C@H](NC(=O)[C@H](C(C)C)N1CCCC3(CN(C(=O)[C@H]4CN4)C3)C1=O)C(=O)N1CCC[C@H](N1)C(=O)OCC(C)(C)C2 | 10 to 100 nM
CCn1c(-c2cnccc2COC)c2c3cc(ccc31)-c1cc(O)cc(c1)C[C@H](NC(=O)[C@H](C(C)C)N(C)C(=O)CN(C)C(=O)[C@H]1[C@@H](C3CC3)N1[S@+]([O-])C(C)(C)C)C(=O)N1CCC[C@H](N1)C(=O)OCC(C)(C)C2 (stereo partly shown) | 100 to 1000 nM
CCn1c(-c2cnccc2COC)c2c3cc(ccc31)-c1cc(O)cc(c1)C[C@H](NC(=O)[C@H](C(C)C)N(C)C(=O)CN(C)C(=O)[C@H]1CN1C(=O)OC)C(=O)N1CCC[C@H](N1)C(=O)OCC(C)(C)C2 | 10 to 100 nM
CCn1c(-c2cccnc2[C@H](C)OC)c2c3cc(ccc31)-c1cc(O)cc(c1)C[C@H](NC(=O)[C@H](C(C)C)N1CC[C@@]3(CCN(C[C@H]4CN4)C3)C1=O)C(=O)N1CCC[C@H](N1)C(=O)OCC(C)(C)C2 (single isomer, unassigned) [Example 139] | < 10 nM

----------
- assay.system: NRAS WT (Homo sapiens, UniProt P01111+P62937)
- Construct: His6
- Sequence (P01111 whole entry): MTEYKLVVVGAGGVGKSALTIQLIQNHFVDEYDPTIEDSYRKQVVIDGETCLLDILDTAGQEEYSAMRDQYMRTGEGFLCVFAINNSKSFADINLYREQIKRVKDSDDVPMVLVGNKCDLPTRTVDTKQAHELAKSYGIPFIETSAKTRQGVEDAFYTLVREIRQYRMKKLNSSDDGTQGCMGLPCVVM
- Sequence (P62937 whole entry): as the sequence (P62937 whole entry) above
- assay: Ras-Raf disruption/FRET/MOA assay, NRAS WT
- Format: biochemical
- experimental.parameters: NRAS WT; read-out: NRAS WT FRET data IC50
endpoint: IC50

compound | value.observed
CCn1c(-c2cnccc2COC)c2c3cc(ccc31)-c1cc(O)cc(c1)C[C@H](NC(=O)[C@H](C(C)C)N(C)C(=O)CN(C)C(=O)[C@@H]1CN1S(C)(=O)=O)C(=O)N1CCC[C@H](N1)C(=O)OCC(C)(C)C2 (some centres unmarked) | 10 to 100 nM
CCn1c(-c2cccnc2[C@H](C)OC)c2c3cc(ccc31)-c1csc(n1)C[C@H](NC(=O)[C@H](C(C)C)N(C)C(=O)N1CCC[C@@H](N(C)C(=O)[C@@H]3CN3)C1)C(=O)N1CCC[C@H](N1)C(=O)OCC(C)(C)C2 (atropisomer, axis not shown) | 10 to 100 nM

----------
In this section we review reported pIC50 values for a set of molecules.
- assay.system: NRAS G12C (Homo sapiens, UniProt P01111+P62937, G12C)
- Construct: His6
- Sequence (P01111 whole entry G12C): as the sequence (P01111 whole entry) above, with G12C counted along it
- Sequence (P62937 whole entry): as the sequence (P62937 whole entry) above
- assay: Ras-Raf disruption/FRET/MOA assay, NRAS G12C
- Type: biochemical
- experimental.parameters: NRAS G12C; read-out: NRAS G12C FRET data IC50
- Source text: Disruption of B-Raf Ras-Binding Domain (BRAF^RBD) Interaction with K-Ras by Compounds of the Invention (Also Called a FRET Assay or an MOA Assay) Note—The following protocol describes a procedure for monitoring disruption of K-Ras G12C (GMP-PNP) binding to BRAF^RBD by a compound of the invention. This protocol may also be executed substituting other Ras proteins or nucleotides, such as K-Ras G12D and K-Ras G13D. […]
pIC50: −log10 of the molar value.

molecule | pIC50
CCn1c(-c2cccnc2[C@H](C)OC)c2c3cc(ccc31)-c1csc(n1)C[C@H](NC(=O)[C@H](C(C)C)N(C)C(=O)N1CCC[C@@H](N(C)C(=O)[C@@H]3CN3)C1)C(=O)N1CCC[C@H](N1)C(=O)OCC(C)(C)C2 (atropisomer, axis not shown) | 7.00 to 8.00
CCn1c(-c2cnccc2COC)c2c3cc(ccc31)-c1cc(O)cc(c1)C[C@H](NC(=O)[C@@H](CNC1=NCCO1)C(C)C)C(=O)N1CCC[C@H](N1)C(=O)OCC(C)(C)C2 | 5.00 to 6.00

----------
- assay.system: NRAS G12C (Homo sapiens, UniProt P01111+P62937, G12C)
- Construct: His6
- assay: Ras-Raf disruption/FRET/MOA assay, NRAS G12C
- Format: biochemical
- experimental.parameters: NRAS G12C; read-out: NRAS G12C FRET data IC50
endpoint: IC50

molecule | endpoint | value.observed
CCn1c(-c2cccnc2[C@H](C)OC)c2c3cc(ccc31)-c1csc(n1)C[C@H](NC(=O)[C@H](C1CCCC1)N1CC[C@]3(CCN(C(=O)[C@H]4CN4)C3)C1=O)C(=O)N1CCC[C@H](N1)C(=O)OCC(C)(C)C2 | IC50 | 10 to 100 nM
CCn1c(-c2cnccc2COC)c2c3cc(ccc31)-c1cc(O)cc(c1)C[C@H](NC(=O)[C@H](C(C)C)N(C)C(=O)CN(C)C(=O)C1CN1S(C)(=O)=O)C(=O)N1CCC[C@H](N1)C(=O)OCC(C)(C)C2 (stereo partly shown) | IC50 | 10 to 100 nM
CCn1c(-c2cccnc2[C@H](C)OC)c2c3cc(ccc31)-c1cccc(c1)C[C@H](NC(=O)[C@H](C(C)C)N1CC[C@H](CN=C=NCCOC)C1)C(=O)N1CCC[C@H](N1)C(=O)OCC(C)(C)C2 | IC50 | 100 to 1000 nM
CCn1c(-c2cccnc2[C@H](C)OC)c2c3cc(ccc31)-c1cc(O)cc(c1)C[C@H](NC(=O)[C@H](C(C)C)N1CC[C@]3(CCCN(C(=O)[C@@H]4CN4)C3)C1=O)C(=O)N1CCC[C@H](N1)C(=O)OCC(C)(C)C2 | IC50 | < 10 nM

----------
In this section we review reported IC50 values for a set of compounds.
- Tested on: NCI-H358 (K-Ras G12C)
- assay: CellTiter-Glo cell viability assay, H358
- Type: cell-based
- experimental.parameters: Homo sapiens, NCI-H358, 120 h, read-out: H358 Cell Viability IC50, NCI-H358, K-Ras G12C, 5-day treatment
endpoint: IC50

compound | assay.system | value.observed
CCn1c(-c2cccnc2[C@H](C)OC)c2c3cc(ccc31)-c1cc(O)cc(c1)C[C@H](NC(=O)[C@H](C(C)C)N(C)C(=O)CN(C)C(=O)[C@@H]1CN1CCCOC)C(=O)N1CCC[C@H](N1)C(=O)OCC(C)(C)C2 (some centres unmarked) | NCI-H358 (K-Ras G12C) | < 10 nM
CCn1c(-c2cccnc2[C@H](C)OC)c2c3cc(ccc31)-c1cc(O)cc(c1)C[C@H](NC(=O)[C@H](C(C)C)N(C)C(=O)CN(C)C(=O)[C@@H]1CN1CCOC)C(=O)N1CCC[C@H](N1)C(=O)OCC(C)(C)C2 (some centres unmarked) | NCI-H358 (K-Ras G12C) | < 10 nM
CCn1c(-c2cccnc2[C@H](C)OC)c2c3cc(ccc31)-c1cc(O)cc(c1)C[C@H](NC(=O)[C@H](C(C)C)N(C)C(=O)CN(C)C(=O)[C@@H]1N[C@@H]1C(F)(F)F)C(=O)N1CCC[C@H](N1)C(=O)OCC(C)(C)C2 | NCI-H358 (K-Ras G12C) | 10 to 100 nM
CC[C@H]1N[C@H]1C(=O)N(C)CC(=O)N(C)[C@H](C(=O)N[C@H]1Cc2cc(O)cc(c2)-c2ccc3c(c2)c(c(-c2cccnc2[C@H](C)OC)n3CC)CC(C)(C)COC(=O)[C@@H]2CCCN(N2)C1=O)C(C)C | NCI-H358 (K-Ras G12C) | 10 to 100 nM
CCn1c(-c2cccnc2[C@H](C)OC)c2c3cc(ccc31)-c1cc(O)cc(c1)C[C@H](NC(=O)[C@H](C(C)C)N(C)C(=O)CN(C)C(=O)[C@]1(C)CN1)C(=O)N1CCC[C@H](N1)C(=O)OCC(C)(C)C2 | NCI-H358 (K-Ras G12C) | 10 to 100 nM
CC[C@@H]1N[C@@H]1C(=O)N(C)CC(=O)N(C)[C@H](C(=O)N[C@H]1Cc2cc(O)cc(c2)-c2ccc3c(c2)c(c(-c2cccnc2[C@H](C)OC)n3CC)CC(C)(C)COC(=O)[C@@H]2CCCN(N2)C1=O)C(C)C | NCI-H358 (K-Ras G12C) | 10 to 100 nM
CCn1c(-c2cccnc2[C@H](C)OC)c2c3cc(ccc31)-c1cc(O)cc(c1)C[C@H](NC(=O)[C@H](C(C)C)N(C)C(=O)CN(C)C(=O)[C@@H]1CN1)C(=O)N1CCC[C@H](N1)C(=O)OCC(C)(C)C2 | NCI-H358 (K-Ras G12C) | < 10 nM
CCn1c(-c2cccnc2[C@H](C)OC)c2c3cc(ccc31)-c1cc(O)cc(c1)C[C@H](NC(=O)[C@H](C(C)C)N(C)C(=O)CN(C)C(=O)[C@@H]1N[C@@H]1C1CCC1)C(=O)N1CCC[C@H](N1)C(=O)OCC(C)(C)C2 | NCI-H358 (K-Ras G12C) | 10 to 100 nM
CCn1c(-c2cnccc2COC)c2c3cc(ccc31)-c1cc(O)cc(c1)C[C@H](NC(=O)[C@H](C(C)C)N(C)C(=O)CN(C)C(=O)[C@@H]1CN1)C(=O)N1CCC[C@H](N1)C(=O)OCC(C)(C)C2 | NCI-H358 (K-Ras G12C) | 10 to 100 nM
CCn1c(-c2cccnc2[C@H](C)OC)c2c3cc(ccc31)-c1cc(O)cc(c1)C[C@H](NC(=O)[C@H](C(C)C)N(C)C(=O)CN(C)C(=O)[C@@H]1CN1CCCOC(C)=O)C(=O)N1CCC[C@H](N1)C(=O)OCC(C)(C)C2 (some centres unmarked) | NCI-H358 (K-Ras G12C) | < 10 nM
CCn1c(-c2cccnc2[C@H](C)OC)c2c3cc(ccc31)-c1cc(O)cc(c1)C[C@H](NC(=O)[C@H](C(C)C)N(C)C(=O)CN(C)C(=O)[C@@H]1N[C@H]1COC)C(=O)N1CCC[C@H](N1)C(=O)OCC(C)(C)C2 | NCI-H358 (K-Ras G12C) | 10 to 100 nM
CCn1c(-c2cccnc2[C@H](C)OC)c2c3cc(ccc31)-c1cc(O)cc(c1)C[C@H](NC(=O)[C@H](C(C)C)N(C)C(=O)CN(C)C(=O)[C@@H]1CN1C1COC1)C(=O)N1CCC[C@H](N1)C(=O)OCC(C)(C)C2 (some centres unmarked) | NCI-H358 (K-Ras G12C) | 10 to 100 nM
CCn1c(-c2cccnc2[C@H](C)OC)c2c3cc(ccc31)-c1cc(O)cc(c1)C[C@H](NC(=O)[C@H](C(C)C)N(C)C(=O)CN(C)C(=O)[C@@]1(C)CN1)C(=O)N1CCC[C@H](N1)C(=O)OCC(C)(C)C2 | NCI-H358 (K-Ras G12C) | 10 to 100 nM
CCn1c(-c2cccnc2[C@H](C)OC)c2c3cc(ccc31)-c1cc(O)cc(c1)C[C@H](NC(=O)[C@H](C(C)C)N(C)C(=O)CN(C)C(=O)[C@@H]1CN1CCCC#N)C(=O)N1CCC[C@H](N1)C(=O)OCC(C)(C)C2 (some centres unmarked) | NCI-H358 (K-Ras G12C) | < 10 nM
CCC(C)N(C)C(=O)c1cncc(-c2c3c4cc(ccc4n2CC)-c2cc(O)cc(c2)C[C@H](NC(=O)[C@H](C(C)C)N(C)C(=O)CN(C)C(=O)[C@H]2CN2)C(=O)N2CCC[C@H](N2)C(=O)OCC(C)(C)C3)c1 (some centres unmarked) | NCI-H358 (K-Ras G12C) | 10 to 100 nM
CCn1c(-c2cnccc2COC)c2c3cc(ccc31)-c1cc(O)cc(c1)C[C@H](NC(=O)[C@H](C(C)C)N(C)C(=O)CN(C)C(=O)[C@H]1CN1)C(=O)N1CCC[C@H](N1)C(=O)OCC(C)(C)C2 | NCI-H358 (K-Ras G12C) | 10 to 100 nM
CCn1c(-c2cnccc2COC)c2c3cc(ccc31)-c1cc(O)cc(c1)C[C@H](NC(=O)[C@H](C(C)C)N(C)C(=O)CN(C)C(=O)[C@@H]1N[C@@H]1C1CC1)C(=O)N1CCC[C@H](N1)C(=O)OCC(C)(C)C2 | NCI-H358 (K-Ras G12C) | 100 to 1000 nM
